test: Pharmacokinetics parameters for Cefotaxine evaluated after single IV or intramuscular (IM) administration of Cefotaxine to normal volunteers.; format: ADME, organism-based; design: dose 1 g, dose 500 mg, dose 2 g, route iv, route im; details: human, in vivo; dose 50 mg/kg, dosed compound id 59, dosed compound name CEFOTAXIME, regimen Single dose, route iv, study dosing duration 10 to 15 minutes, tissue Urine
reported.metric: half-life (h)

molecule: CO/N=C(\C(=O)N[C@@H]1C(=O)N2C(C(=O)[O-])=C(COC(C)=O)CS[C@H]12)c1csc(N)n1.[Na+] [CEFOTAXIME SODIUM]
u: h
data.value: 4.6

----------
assay: Pharmacokinetics parameters for Cefotaxine evaluated after single IV or intramuscular (IM) administration of Cefotaxine to normal volunteers.; format: ADME, organism-based; set-up: dose 1 g, dose 500 mg, dose 2 g, route iv, route im; settings: human, in vivo; dosed compound id 590, dosed compound name 14C-CEFOTAXIME, regimen Single dose, route iv, tissue Urine; read-out: Excretion
reported.metric: dose excreted

compound: CO/N=C(\C(=O)N[C@@H]1C(=O)N2C(C(=O)[O-])=C(COC(C)=O)CS[C@H]12)c1csc(N)n1.[Na+] [CEFOTAXIME SODIUM]
data.value: 20 to 36%

----------
experiment: Pharmacokinetics parameters for Cefotaxine evaluated after single IV or intramuscular (IM) administration of Cefotaxine to normal volunteers.; format: ADME, organism-based; set-up: dose 1 g, dose 500 mg, dose 2 g, route iv, route im; settings: human, in vivo; dose 1 g, dosed compound id 59, dosed compound name CEFOTAXIME, regimen Single dose, route im, tissue Serum
reported.metric: half-life (h)

molecule: CO/N=C(\C(=O)N[C@@H]1C(=O)N2C(C(=O)[O-])=C(COC(C)=O)CS[C@H]12)c1csc(N)n1.[Na+] [CEFOTAXIME SODIUM]
reported.metric: half-life
u: h
data.value: 1

----------
test: Pharmacokinetics parameters for Cefotaxine evaluated after single IV or intramuscular (IM) administration of Cefotaxine to normal volunteers.; format: ADME, organism-based; parameters: dose 1 g, dose 500 mg, dose 2 g, route iv, route im; conditions: human, in vivo; dose 1 g, dosed compound id 59, dosed compound name CEFOTAXIME, regimen Single dose, route im, tissue Serum
reported.metric: Tmax (min)

compound: CO/N=C(\C(=O)N[C@@H]1C(=O)N2C(C(=O)[O-])=C(COC(C)=O)CS[C@H]12)c1csc(N)n1.[Na+] [CEFOTAXIME SODIUM]
data.value: 30
